# system-under-test: T1, human ASGR-1 mutant construct H203 (human, UniProt P07306 1-291)
# T1 construct: Arg/Glu scanning: non-arginine residues were changed to arginine; Transiently expressed on CHO-S cells
# T1 sequence: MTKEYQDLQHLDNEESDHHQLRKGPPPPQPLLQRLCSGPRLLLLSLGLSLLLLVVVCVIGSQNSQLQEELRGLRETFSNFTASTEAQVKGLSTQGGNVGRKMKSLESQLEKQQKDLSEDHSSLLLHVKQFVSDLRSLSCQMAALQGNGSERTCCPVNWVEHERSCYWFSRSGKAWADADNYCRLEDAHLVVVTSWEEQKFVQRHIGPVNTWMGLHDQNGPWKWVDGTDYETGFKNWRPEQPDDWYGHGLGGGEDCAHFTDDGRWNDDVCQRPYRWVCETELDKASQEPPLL
# experiment-summary: FACS, transfected CHO-S cells, mAb 5 ug/ml
measurement-label: FACS Binding Geomean
Could you keep your reply to the number by itself?

{"columns": ["binder", "FACS Binding Geomean"],
 "data": [
  ["65D5 (antibody, V domains shown, mAb) VH: QVQLVQSGAEVKKPGASVKVSCKASGYTFPSYGISWVRQAPGQGLEWMGWISAYSGNTNYAQKLQGRVTMTTDTSTSTAYMELRSLRSDDTAVYFCARGEAVAVFDPWGQGTLVTVSS VL: DIQMTQSPSSLSASVGDRVTITCRASQDINNYLAWFQQKPGKAPRSLIYAASSLHSGVPSQFSASGSGSDFTLTISSLQPEDFATYYCPLYKSYPLTFGPGTKVDIK", 20300],
  ["61A1 (antibody, V domains shown, mAb) VH: QVQLQESGPGLVKPSETLSLTCTVSGGSISSHFWSWIRQPAGKGLEWIGRIYIRGSTNYNPSLKSRVTMSVDTSKNQFSLKLSSVTAADTAVYYCAREGKTGGVSYFDYWGQGTLVTVSS VL: DIQMTQSPSSLSASVGDRVTITCRASQSISSYLNWYQQKPGKAPKLLIYAASSLQSGVPSRFSGSGSGTDFTLTISSLQPEDFAPYYCQQSYNISFTFGPGTKVDIK", 20100],
  ["194A4 (antibody, V domains shown, mAb) VH: QVQLVQSGTEVKKPGASLKVSCKASGYTFTVYYLNWVRQAPGQGLEWMGWINPNSGGTNYAQKFQGRVTMTRDTSISTAYMELSRLRSDDTAVYYCARGYDILTGWGQGTLVTVSS VL: EIVLTQSPGTLSLSPGERATLSCRASRGVSNIYLAWYQQKPGQAPRLLIYGASNRATGIPDRFSGSGSGTDFTLTISRLEPEDFAVYYCQHNDYSMFTFGPGTKVDIK", 12100],
  ["29E2 (antibody, V domains shown, mAb) VH: QVQLVESGGGVVQPGRSLRLSCAASGFTFSNCVMHWVRQAPGKGLEWVAVIWYDGSNKYYADSVKGRITISRDNSKNTLYLQMNSLRAEDTAVYYCAREEYSSGWYDYGMDVWGQGTTVTVSS VL: DIQMTQSPSSLSASVGDRVTITCRASQAIRNDLGWYQQRPGKAPKRLIYAASSLQSGVPSRFSGSGSGTEFILTISSLQPEDFATYYCLQHYNYPRSFGQGTKLEIK", 15100]
]}

Would you kindly look at the next entry?
For record 6G7 (antibody, V domains shown, mAb) VH: QVQLVESGGGVVQPGRSLRLSCAASGFTFSSYGMHWVRQTPGKGLEWVAIISYVGKNKYYADSVKGRFTISRDNSKNTLYLQMNSLRAEDTAVYYCARRGNSYGGYGMDVWGQGTTVTVSS VL: DIQMTQSPSSRSASVGDRVTITCQASQDISNYLNWCQQKPGKALKLLIYDASTLETGVPSRFSGSGSGTDFTFTISSVQPEDIATYYCQQYDNVPITFGQGTRLEIK the listed FACS Binding Geomean is 15100
